# measurement.notes: gradient 5% acetonitrile 3 min, to 50% in 2 min, to 85% in 15 min, held 3 min, 100 µL/min
# details: column: Zorbax Extend-C18 2.1 x 50 mm; eluents: water / acetonitrile, 0.1% formic acid
Overview of recorded RP-LC retention time for various compounds
// units = s; emit number, no label

Some solved cases for reference:
>>> df
                                   compound  unit_abbreviation  obs_value
0  Cc1cc2nn(CC(=O)Nc3cccc(Cl)c3)c(=O)n2c(Nc2ccccc2)n1                  s       1060
1         O=C(Nc1ccc(Cl)cc1Cl)c1ccc(Br)cc1F                  s       1360
2  CCOc1ccc(CNC(=O)COc2nc(C)nc3oc(C)c(C)c23)cc1                  s        892
3  Brc1cccc(-c2nnc(Cc3nc(-c4cccnc4)no3)o2)c1                  s        845
4  Cc1ccc(-c2nc3cccc(C)n3c2Nc2ccc3c(c2)OCCO3)cc1                  s        710

QUERY: Input CN1C(=O)COc2ccc(-c3csc(NC(=O)C4CC4)n3)cc21 , output reported RP-LC retention time.
RESULT: 778

QUERY: Input COc1ccccc1CNC(=O)CCC1CCN(c2cc(NC3CC3)ncn2)CC1 , output reported RP-LC retention time.
RESULT: 669

QUERY: Input O=C(Nc1ccccc1Br)c1c(O)c2cccc3c2n(c1=O)CC3 , output reported RP-LC retention time.
RESULT: 1240

QUERY: Input CC(NC(=O)c1ccco1)c1nc2ccccc2n1CC(=O)N(C(C)C)C(C)C (centres undefined) , output reported RP-LC retention time.
RESULT: 691

QUERY: Input O=c1oc2cc(O)c(O)cc2c2c1CCC2 , output reported RP-LC retention time.
RESULT: 641

QUERY: Input Cc1ccc(NC(=O)CN2C(=O)CCCc3cc(S(=O)(=O)N4CCCC4)ccc32)c(Cl)c1 , output reported RP-LC retention time.
RESULT: 912

QUERY: Input CN(C(=O)C1CCCN(c2ncnc3c2nc2n3CCCCC2)C1)c1ccccc1Cl (centres undefined) , output reported RP-LC retention time.
RESULT: 846

QUERY: Input O=C(NC1CC1)c1cn(CCC2CCCCN2C(=O)c2ccoc2)nn1 (centres undefined) , output reported RP-LC retention time.
RESULT: 641

---

# measurement.notes: gradient 5% acetonitrile 3 min, to 50% in 2 min, to 85% in 15 min, held 3 min, 100 µL/min
# details: column: Zorbax Extend-C18 2.1 x 50 mm; eluents: water / acetonitrile, 0.1% formic acid
Please use TRUE whenever RP-LC retention time is not below 800 s, and FALSE whenever it is.

>>> print(df.to_string())
                                   molecule  class
0  CCn1nc(C)c(CCN(C)C(=O)Nc2ccccc2C(=O)OC)c1C  FALSE

Now look at this one.
QUERY: Record Cc1cc(C)c2c(N3CCOCC3)nc(C(=O)N3CCN(C4CCCCC4)CC3)nc2n1 ; criterion: RP-LC retention time no lower than 800 s. Met?
RESULT: FALSE

---

# measurement.notes: gradient 5% acetonitrile 3 min, to 50% in 2 min, to 85% in 15 min, held 3 min, 100 µL/min
# details: column: Zorbax Extend-C18 2.1 x 50 mm; eluents: water / acetonitrile, 0.1% formic acid
Overview of recorded RP-LC retention time for various molecules
// units = s; emit number, no label

Some solved cases for reference:
In [3]: df
Out[3]:
                                   molecule  obs_value
0  CN(C)CCOc1ccc2c(c1)C(=O)/C(=C\c1ncc([N+](=O)[O-])n1C)C2        695
1  CCN(CC)c1ncc2c(n1)CCC(C(=O)NCc1cccc(OC)c1)C2 (centres undefined)        695
2  CCOC(=O)c1cnc2nc(C)ccc2c1Nc1ccc(OC)cc1OC        702

Now for another entry.
QUERY: Input COc1ccc2c(c1)c(CN1CCC(C(=O)NCc3ccccc3Cl)CC1)cn2C , output reported RP-LC retention time.
RESULT: 699

---

Overview of recorded RP-LC retention time for various compounds
# measurement.notes: gradient 5% acetonitrile 3 min, to 50% in 2 min, to 85% in 15 min, held 3 min, 100 µL/min
# details: column: Zorbax Extend-C18 2.1 x 50 mm; eluents: water / acetonitrile, 0.1% formic acid
// units = s; emit number, no label

Some solved cases for reference:
In [3]: df
Out[3]:
                                   compound  obs_value
0      O=C(C1CCCC1)N1CCn2c(nnc2-c2ccccc2)C1        689
1  O=C(NC1CCCC1)N1CCC(c2noc(-c3ccccc3)n2)C1 (stereo not drawn)        868
2  Cc1ccc(C)c(-c2coc(-c3ccc(NC(=O)NCCc4ccccc4)cc3)n2)c1       1240

QUERY: Input CCC(C)NC(=O)Cn1nc2c3cc(-c4ccc(Cl)cc4)nn3ccn2c1=O (stereo not drawn) , output reported RP-LC retention time.
RESULT: 868

QUERY: Input O=C(Nc1ccccc1F)C1CCCN(S(=O)(=O)c2c[nH]c(C(=O)N3CCCCCC3)c2)C1 (stereo not drawn) , output reported RP-LC retention time.
RESULT: 880

QUERY: Input CCc1ccc(-c2nc(-c3ccc4nnn(C)c4c3)no2)cc1 , output reported RP-LC retention time.
RESULT: 1150

QUERY: Input CCn1cc(CCNC(=O)Nc2cc(F)c(F)c(F)c2)c2cccnc21 , output reported RP-LC retention time.
RESULT: 820

QUERY: Input CC1=C(c2ccc(C)cc2)S(=O)(=O)N=C1N1CCCN(C(=O)C2CC2)CC1 , output reported RP-LC retention time.
RESULT: 581

QUERY: Input CCc1cccc(C)c1NC(=O)C1CCN(S(C)(=O)=O)c2cc(C)ccc2O1 (stereo not drawn) , output reported RP-LC retention time.
RESULT: 671

---

# measurement.notes: gradient 5% acetonitrile 3 min, to 50% in 2 min, to 85% in 15 min, held 3 min, 100 µL/min
# details: column: Zorbax Extend-C18 2.1 x 50 mm; eluents: water / acetonitrile, 0.1% formic acid
measured.parameter: RP-LC retention time (s)
// units = s; emit number, no label

                                   compound  obs_value
0  COc1cc(NC(=O)c2ccc3cccc(O)c3n2)cc(OC)c1OC        880
1  Cc1ccc(-n2nc(C)c3sc(N4CCCC(C(=O)Nc5ccccc5C)C4)nc32)cc1 (stereo not drawn)       1220

Now for another entry.
QUERY: Input CC1(C)CC(=O)c2cn(-c3ccccc3)c(=O)c(C(=O)N3CCN(c4ccccn4)CC3)c2C1 , output reported RP-LC retention time.
RESULT: 622

---

# measurement.notes: gradient 5% acetonitrile 3 min, to 50% in 2 min, to 85% in 15 min, held 3 min, 100 µL/min
# details: column: Zorbax Extend-C18 2.1 x 50 mm; eluents: water / acetonitrile, 0.1% formic acid
measured.parameter: RP-LC retention time
Provide a numeric answer, followed by its unit.

>>> df
                                   molecule    measured_parameter  obs_value
0  CN(C)c1cccc(C(=O)N2CCCN(c3cc(-c4ccc5c(c4)OCO5)[nH]n3)CC2)c1  RP-LC retention time      680 s
1  CCCNC(=O)c1cn(-c2cc(-c3nc(CC)no3)ccn2)cn1  RP-LC retention time      780 s
2  CS(=O)(=O)N(C1CCOCC1)C1CN(C(=O)COc2ccccc2)C1  RP-LC retention time      692 s
3  CN(C)C(=O)c1ccc2c(c1)n(Cc1ccc(F)cc1)c(=O)c1ccnn12  RP-LC retention time      780 s
4  Cc1nc2ccccc2c(=O)n1Cc1noc(C(=O)NCCC2=CCCCC2)n1  RP-LC retention time      915 s
5           CCCn1cc(C(=O)NC2CCCC2)c2cccnc21  RP-LC retention time      794 s
6  COc1ccc(-c2nnc(COc3ccc(NC(=O)CNC(=O)Cc4ccccc4)cc3)o2)cc1  RP-LC retention time      812 s
7  CCn1ccc2c(cc(C(=O)Nc3cccc(C(F)(F)F)c3)n2C)c1=O  RP-LC retention time      880 s

QUERY: Input CC(C)n1c(=O)c(NCc2ccccc2C(F)(F)F)nc2ccncc21 , output reported RP-LC retention time.
RESULT: 714 s

QUERY: Input COC(=O)c1ccc(N2C=C(C#N)S(=O)(=O)c3ccc(Cl)cc32)cc1 , output reported RP-LC retention time.
RESULT: 954 s

QUERY: Input Cc1cc(Cl)ccc1S(=O)(=O)N1CCCC(Cn2cnc3cccnc32)C1 (stereo not drawn) , output reported RP-LC retention time.
RESULT: 853 s

QUERY: Input CCCN(C)c1nccn2c(=O)n(CC(=O)Nc3cccc(C)c3C)nc12 , output reported RP-LC retention time.
RESULT: 684 s

QUERY: Input Cc1cccc(N2CCN(C(=O)c3ccnc(N4CCCC4)n3)CC2)c1 , output reported RP-LC retention time.
RESULT: 894 s

Values compiled from the METLIN SMRT retention time set (Domingo-Almenara et al. 2019).
